Below, each entry is listed with its recorded TGI.
System: MDA-N
assay-procedure: NCI tumour cell line growth inhibition, 48 h

compound=CCCCC1(NN=C2CCCCC2)C(=O)N(c2ccccc2)N(c2ccccc2)C1=O assayed_target=MDA-N measured_result="> 100 µM"
compound=CC[C@@H](C)[C@H](NC(=O)[C@H](Cc1ccccc1)NCC(F)(F)F)C(=O)OC(C)(C)C assayed_target=MDA-N measured_result="> 100 µM"
compound=Cc1ccc2c(ccc(/C=C/c3ccc(O)c4ncccc34)[n+]2C)c1 assayed_target=MDA-N measured_result="> 44.9 µM"

[Q] Specify measured TGI for `C=CC[C@]1(/C=N/O)CN(S(=O)(=O)CC[Si](C)(C)C)C[C@H]2CC=CC[C@H]21` .
[A] 42.8 µM

[Q] Specify measured TGI for COc1ccc(CC2COc3cc(OC)cc(OC)c3C2=O)cc1 (centres undefined) .
[A] > 100 µM

[Q] Specify measured TGI for `CCOP(=Nc1ccc(N(C)C)cc1)(OCC)OCC` .
[A] > 100 µM

[Q] Specify measured TGI for `CCOC(=O)/C=C(\C(=O)OCC)n1cc(C)c(=O)n(Cc2cn(CCCCOC(C)=O)nn2)c1=O` .
[A] 50.9 µM

[Q] Specify measured TGI for Cc1ccc(C2(O)CSC(=NC34CC5CC(CC(C5)C3)C4)N2C(P(=O)(O)O)P(=O)(O)O)cc1 (centres undefined) .
[A] > 100 µM

[Q] Specify measured TGI for `CC(C)NC(=O)OCc1c2c(n(C)c1COC(=O)NC(C)C)-c1cc(Cl)c(Cl)cc1CC2` .
[A] > 100 µM

###

System: OVCAR-4 ovarian
assay-procedure: NCI tumour cell line growth inhibition, 48 h; in the data active means GI50 below about 0.43 µM; inactive means the rest
Pick one and only one: 1 (active), -1 (inactive)

Reference set, count: 2
compound="COc1ccc2c(c1)OC1=C(C(=O)OC1)C2c1cc(OC)c2c(c1)OCCO2 (centres undefined)" category=1
compound=CS(=O)(=O)CCNCc1coc(-c2ccc3ncnc(Nc4ccc(OCc5ccccc5)cc4)c3c2)c1 category=-1

[Q] For this compound, state the assay outcome: `O=C(O)c1ccc(CN2CCC(CN[C@@H]3C[C@H]3c3ccccc3)CC2)cc1`
[A] -1

[Q] For this compound, state the assay outcome: `O=C(Oc1ccc[nH]c1=O)c1cc([N+](=O)[O-])cc([N+](=O)[O-])c1`
[A] -1

[Q] For this compound, state the assay outcome: `CCCCCCCCn1ccc2cc(NC(=O)Cn3cc(CN4CCCCCC4)nn3)ccc21`
[A] -1

[Q] For this compound, state the assay outcome: `CCOc1cccc(/C=N/NC(=O)c2cccc(Nc3ccnc(C(F)(F)F)c3)c2)c1O`
[A] -1

[Q] For this compound, state the assay outcome: `COc1cc(Nc2ncccc2C(=O)Nc2nc3ccc(F)cc3s2)cc(OC)c1OC`
[A] -1

[Q] For this compound, state the assay outcome: `CCOc1cc(C(C)(C)C)ccc1C1=N[C@H](c2ccc(Cl)cc2)[C@H](c2ccc(Cl)cc2)N1C(=O)N1CCN(CC#Cc2cccc3c2CN([C@@H]2CCC(=O)NC2=O)C3=O)CC1`
[A] 1

###

Test system: M19-MEL melanoma
assay-procedure: NCI tumour cell line growth inhibition, 48 h
endpoint-label: TGI

compound="Cc1ccc(S(=O)(=O)N/N=C2\\CCCCC23CCC(=O)NC3)cc1 (configuration not stated)" endpoint_label=TGI measured_result="> 100 µM"
compound="CC1(O)C(C)(O)C2(C)O[Te]3(OC12C)OC1(C)C(C)(O)C(C)(O)C1(C)O3 (configuration not stated)" endpoint_label=TGI measured_result="70.8 µM"
compound=CCN1C[C@]2(C)CC[C@H](O)C34C1C(C[C@@H]32)[C@@]1(O)CC[C@H]2C[C@@H]4[C@@H]1[C@H]2O endpoint_label=TGI measured_result="> 100 µM"
compound=O=C1COc2cc(NC(=S)Nc3ccccc3)ccc2N1 endpoint_label=TGI measured_result="> 100 µM"
compound="CC(=O)C1C(c2ccccc2)C2(C)OC(=O)C(C#N)C12C (configuration not stated)" endpoint_label=TGI measured_result="> 100 µM"
compound="NC1=NN(c2ccccc2)C(=O)C1C(=O)CCC(=O)Nc1cccc(Cl)c1 (configuration not stated)" endpoint_label=TGI measured_result="> 100 µM"
compound=CN(C)CCC(=O)N1C/C(=C\c2ccc(Cl)c(Cl)c2)C(=O)/C(=C/c2ccc(Cl)c(Cl)c2)C1 endpoint_label=TGI measured_result="1.13 µM"
compound=CCCCCCCCCCCC(=O)OCCOCCOCCOCCOCCOC(=O)CCCCCCCCCCC endpoint_label=TGI measured_result="> 100 µM"

[Q] Specify measured TGI for N#CCC(=O)N/N=C1/C(=O)N(c2ccc(Cl)cc2)C(=O)C(=O)C1c1nc2ccccc2s1 (configuration not stated) .
[A] > 100 µM

[Q] Specify measured TGI for `CCOC(=O)[CH-]C(=O)C12CC3CC(CC(C3)C1)C2.CCOC(=O)[CH-]C(=O)C12CC3CC(CC(C3)C1)C2.CC[O-].CC[O-].[Ti+4]` .
[A] > 100 µM

[Q] Specify measured TGI for CCC1=CCN(c2cc(C)ccn2)OC1c1ccc(OC)cc1 (configuration not stated) .
[A] > 100 µM

[Q] Specify measured TGI for `O=C(NC(=O)c1c(F)cccc1F)Nc1cccc(Oc2ncc(Cl)cn2)c1` .
[A] > 100 µM

###

Tested on: NCI-H23 lung
assay-procedure: NCI tumour cell line growth inhibition, 48 h; in the data active = GI50 below about 0.43 µM; inactive = the rest
Pick one and only one: active, inactive

Reference set, count: 3
compound="C#CC1(O)C(COP(=O)(O)OCC(COP(=O)(O)OCC2OC(n3cc(F)c(=O)[nH]c3=O)CC2O)OCCCCCCCCCCCCCCCCCC)OC(n2ccc(N)nc2=O)C1O (stereo unspecified)" assayed_target="NCI-H23 lung" category=active
compound=CCOc1cccc(/C=N/NC(=O)c2cccc(Nc3ccnc(C(F)(F)F)c3)c2)c1O assayed_target="NCI-H23 lung" category=inactive
compound=O=C(O)c1ccc(CN2CCC(CN[C@@H]3C[C@H]3c3ccccc3)CC2)cc1 assayed_target="NCI-H23 lung" category=inactive

[Q] For this compound, state the assay outcome: `CCN1C(=O)/C(=C/c2c(Cl)[nH]c3cc(C)c(OC)cc23)c2ccccc21`
[A] inactive

[Q] For this compound, state the assay outcome: `CCC[CH2][Sn]([CH2]CCC)([O]C(=O)CN)[O]C(=O)CN`
[A] inactive

[Q] For this compound, state the assay outcome: `CCOc1cc(C(C)(C)C)ccc1C1=N[C@H](c2ccc(Cl)cc2)[C@H](c2ccc(Cl)cc2)N1C(=O)N1CCN(CC#Cc2cccc3c2CN([C@@H]2CCC(=O)NC2=O)C3=O)CC1`
[A] inactive

###

Test system: ACHN renal
assay-procedure: NCI tumour cell line growth inhibition, 48 h
Below, each entry is listed with its recorded GI50.

// solved cases for GI50 follow
molecule="CCN(CC)CCNC(Cc1ccccc1)c1ccc(OCc2ccccc2)cc1 (centres undefined)" measured_result="7.85 µM"
molecule=CCCOC(=O)N[C@H]1CCc2c(Cl)c(OC)c(OC)c(OC)c2-c2ccc(SC)c(=O)cc21 measured_result="< 0.01 µM"
molecule="COc1ccc2c(c1)OC1=C(C(=O)OC1)C2c1cc(OC)c2c(c1)OCCO2 (centres undefined)" measured_result="0.122 µM"
molecule=Cn1c(Cl)c(/C=C2/C(=O)Nc3ccccc32)c2ccccc21 measured_result="1.15 µM"
molecule=C=C(C)[C@@H]1CC[C@]2(COCCCN)CC[C@]3(C)[C@H](CC[C@@H]4[C@@](C)(CCCNCCCN)[C@H](C(=C)C)CC[C@]43C)[C@@H]12 measured_result="1.75 µM"

[Q] Specify measured GI50 for `CN(C)C/C=C/C(=O)Nc1ccc(C(=O)N[C@@]2(C)CCC[C@@H](Nc3ncc(Cl)c(-c4c[nH]c5ccccc45)n3)C2)nc1` .
[A] < 0.0108 µM

[Q] Specify measured GI50 for `Nc1n[nH]c2cccc(C#Cc3cccc(NC(=O)c4cccc(C(F)(F)F)c4)c3)c12` .
[A] 2.44 µM

[Q] Specify measured GI50 for `CS(=O)(=O)CCNCc1coc(-c2ccc3ncnc(Nc4ccc(OCc5ccccc5)cc4)c3c2)c1` .
[A] 3.69 µM

[Q] Specify measured GI50 for `Cc1nnc(-c2ccc(C)c(-c3ccc(C(=O)Nc4cccc(C#N)c4)cc3)c2)o1` .
[A] > 25 µM

###

System: SF-268 CNS
assay-procedure: NCI tumour cell line growth inhibition, 48 h; in the data active = GI50 below about 0.43 µM; inactive = the rest
Pick one and only one: y (active), n (inactive)

compound=COc1cccc2c1C(=N)c1c(O)c3c(c(O)c1C2=O)C[C@@](O)(C(C)=O)C[C@@H]3O[C@H]1C[C@H](N)[C@H](O)[C@H](C)O1 category=y

[Q] For this compound, state the assay outcome: COc1ccc2c(c1)NC1=C(C(=O)OC1)C2c1cc(OC)c(OC)c(OC)c1 (centres undefined)
[A] y

[Q] For this compound, state the assay outcome: `[N-]=[N+]=NCCCn1c2c(c3ccc([N+](=O)[O-])cc3c1=O)C(=O)c1ccccc1-2`
[A] n

[Q] For this compound, state the assay outcome: NC(CSC(c1ccccc1)(c1ccccc1)c1ccccc1)C(=O)NCC(=O)O (centres undefined)
[A] n
